# Tested on: vinblastine-resistant sub-cell line (CCRF-CEM/VBL)
# procedureDetails: in vitro cytotoxicity, PrestoBlue assay
# Assay type: cell-based, human
# appliedConditions: number in brackets
quantity: resistance factor (IC50 CEM/VBL vs IC50 of the parent cell line) (×)

>>> assayvalue("CCNC(=O)OCc1c(COC(=O)NCC)c2c3ccccc3c(N3CCOCC3)nn2c1C")
0.65
>>> assayvalue("Cc1c(COC(=O)NC(C)C)c(COC(=O)NC(C)C)c2c3ccccc3c(N3CCCCC3)nn12")
0.90
>>> assayvalue("Cc1c(CO)c(CO)c2c3cc4ccccc4cc3c(N3CCCCC3)nn12")
1.26
>>> assayvalue("CC[C@]1(O)C[C@@H]2CN(CCc3c([nH]c4ccccc34)[C@@](C(=O)OC)(c3cc4c(cc3OC)N(C)[C@H]3[C@@](O)(C(=O)OC)[C@H](OC(C)=O)[C@]5(CC)C=CCN6CC[C@]43[C@@H]65)C2)C1 [Vinblastine, reference compound]")
278.3
>>> assayvalue("Cc1c(CO)c(CO)c2c3ccccc3c(N(C)C)nn12")
0.88
>>> assayvalue("CCNC(=O)OCc1c(COC(=O)NCC)c2c3cc4ccccc4cc3c(N3CCCCC3)nn2c1C")
1.26
>>> assayvalue("Cc1c(COC(=O)NC(C)C)c(COC(=O)NC(C)C)c2c3ccccc3c(N3CCOCC3)nn12")
0.82
>>> assayvalue("Cc1c(CO)c(CO)c2c3cc4ccccc4cc3c(N3CCCC3)nn12")
0.74
>>> assayvalue("Cc1c(CO)c(CO)c2c3cc4ccccc4cc3c(N3CCC(N4CCCCC4)CC3)nn12")
1.51
>>> assayvalue("N.N.[Cl][Pt][Cl] [Cisplatin, reference compound]")
0.54
>>> assayvalue("COc1ccc(-c2c(CO)c(CO)c3c4ccccc4c(N4CCOCC4)nn23)cc1")
0.86
>>> assayvalue("Cc1c(COC(=O)NC(C)C)c(COC(=O)NC(C)C)c2c3ccccc3c(N(C)C)nn12")
0.63
>>> assayvalue("CCNC(=O)OCc1c(COC(=O)NCC)c2c3cc4ccccc4cc3c(N3CCOCC3)nn2c1C")
1.03
>>> assayvalue("CCNC(=O)OCc1c(COC(=O)NCC)c2c3ccccc3c(N(C)C)nn2c1C")
0.75
>>> assayvalue("Cc1c(COC(=O)NC(C)C)c(COC(=O)NC(C)C)c2c3ccccc3c(N3CCCC3)nn12")
0.77
>>> assayvalue("CCNC(=O)OCc1c(COC(=O)NCC)c2c3ccccc3c(N3CCCC3)nn2c1C")
1.47
>>> assayvalue("Cc1c(CO)c(CO)c2c3ccccc3c(N3CCCCC3)nn12")
1.28

###

# System: H82
# procedureDetails: in vitro cytotoxicity to SCLC cells
# Format: cell-based, human
# appliedConditions: Table 3
pIC50: −log10 of the molar value.
Lab note: anything with pIC50 at or over 6 counts as True; the rest go in False.

>>> discretelabel("CCNC(=O)OCc1c(COC(=O)NCC)c2c3cc4ccccc4cc3c(N3CCCCC3)nn2c1C")
"False"
>>> discretelabel("Cc1c(CO)c(CO)c2c3cc4ccccc4cc3c(N3CCC(N4CCCCC4)CC3)nn12")
"True"
>>> discretelabel("N.N.[Cl][Pt][Cl] [Cisplatin, reference compound]")
"False"
>>> discretelabel("CCNC(=O)OCc1c(COC(=O)NCC)c2c3cc4ccccc4cc3c(N(C)C)nn2c1C")
"True"
>>> discretelabel("Cc1c(CO)c(CO)c2c3cc4ccccc4cc3c(N3CCOCC3)nn12")
"True"
>>> discretelabel("Cc1c(CO)c(CO)c2c3cc4ccccc4cc3c(N(C)C)nn12")
"True"
>>> discretelabel("CCNC(=O)OCc1c(COC(=O)NCC)c2c3cc4ccccc4cc3c(N3CCC(N4CCCCC4)CC3)nn2c1C")
"True"
>>> discretelabel("Cc1c(CO)c(CO)c2c3cc4ccccc4cc3c(N3CCCC3)nn12")
"True"
>>> discretelabel("CCNC(=O)OCc1c(COC(=O)NCC)c2c3cc4ccccc4cc3c(N3CCCC3)nn2c1C")
"False"

###

# System: non-small cell lung cancer H460
# procedureDetails: in vitro cytotoxicity, PrestoBlue assay
# Type: cell-based, human
# appliedConditions: Table 2
quantity: IC50 (nM)

>>> assayvalue("Cc1c(CO)c(CO)c2c3cc4ccccc4cc3c(N(C)C)nn12")
1020
>>> assayvalue("Cc1c(CO)c(CO)c2c3ccccc3c(N3CCC(N4CCCCC4)CC3)nn12")
600
>>> assayvalue("N.N.[Cl][Pt][Cl] [Cisplatin, reference compound]")
5110
>>> assayvalue("Cc1c(CO)c(CO)c2c3cc4ccccc4cc3c(N3CCCC3)nn12")
780
>>> assayvalue("Cc1c(CO)c(CO)c2c3cc4ccccc4cc3c(N3CCCCC3)nn12")
3030
>>> assayvalue("Cc1c(CO)c(CO)c2c3ccccc3c(N3CCOCC3)nn12")
2640
>>> assayvalue("Cc1c(CO)c(CO)c2c3cc4ccccc4cc3c(N3CCOCC3)nn12")
1180
>>> assayvalue("COc1ccc(-c2c(CO)c(CO)c3c4ccccc4c(N4CCOCC4)nn23)cc1")
18700
>>> assayvalue("CCNC(=O)OCc1c(COC(=O)NCC)c2c3ccccc3c(N3CCOCC3)nn2c1C")
2480
>>> assayvalue("CCNC(=O)OCc1c(COC(=O)NCC)c2c3ccccc3c(N(C)C)nn2c1C")
3470

###

# Test system: H1417
# procedureDetails: in vitro cytotoxicity to SCLC cells
# Type: cell-based, human
# appliedConditions: Homo sapiens, NCI-H1417; Table 3
# Description: After a 72-hr incubation in various concentrations of the newly synthesized compounds, the cytotoxic effects of them to all cell lines were determined by the PrestoBlue®(Invitrogen) assay using a microplate spectrophotometer. Briefly, at the end of treatment, an aliquot of PrestoBlue® solution was added and then cells were incubated at 37° C. for 1-2 hr. The absorbance at 570 and 600 nm was measured with a microplate reader. […]
quantity: IC50 (µM)

>>> assayvalue("CCc1c2c(nc3ccc(OC(=O)N4CCC(N5CCCCC5)CC4)cc13)-c1cc3c(c(=O)n1C2)COC(=O)[C@]3(O)CC [Irinotecan, reference compound]")
9.79
>>> assayvalue("COc1cc([C@@H]2c3cc4c(cc3[C@@H](O[C@@H]3O[C@@H]5CO[C@@H](C)O[C@H]5[C@H](O)[C@H]3O)[C@H]3COC(=O)[C@H]23)OCO4)cc(OC)c1O [Etoposide, reference compound]")
4.53

###

# Tested on: pancreatic cancer PacaS1
# procedureDetails: in vitro cytotoxicity, PrestoBlue assay
# Assay type: cell-based, human
# appliedConditions: Table 2
quantity: IC50 Paca SI

>>> assayvalue("Cc1c(CO)c(CO)c2c3cc4ccccc4cc3c(N3CCOCC3)nn12")
"0.88 ± 0.26 µM"
>>> assayvalue("Cc1c(CO)c(CO)c2c3ccccc3c(N3CCCC3)nn12")
"11.73 ± 1.16 µM"
>>> assayvalue("CCNC(=O)OCc1c(COC(=O)NCC)c2c3ccccc3c(N3CCOCC3)nn2c1C")
"17.23 ± 3.48 µM"
>>> assayvalue("COc1ccc(-c2c(CO)c(CO)c3c4ccccc4c(N4CCOCC4)nn23)cc1")
"36.63 ± 1.04 µM"
>>> assayvalue("CCNC(=O)OCc1c(COC(=O)NCC)c2c3ccccc3c(N(C)C)nn2c1C")
"8.01 ± 1.40 µM"
>>> assayvalue("CCc1c(CO)c(CO)c2c3ccccc3c(N3CCOCC3)nn12")
"13.02 ± 0.93 µM"
>>> assayvalue("N.N.[Cl][Pt][Cl] [Cisplatin, reference compound]")
"27.04 ± 0.98 µM"
>>> assayvalue("Cc1c(CO)c(CO)c2c3cc4ccccc4cc3c(N3CCCC3)nn12")
"1.04 ± 0.08 µM"
>>> assayvalue("Cc1c(CO)c(CO)c2c3ccccc3c(N3CCC(N4CCCCC4)CC3)nn12")
"0.30 ± 0.08 µM"
>>> assayvalue("Cc1c(CO)c(CO)c2c3cc4ccccc4cc3c(N(C)C)nn12")
"3.98 ± 1.04 µM"
>>> assayvalue("Cc1c(CO)c(CO)c2c3ccccc3c(N3CCOCC3)nn12")
"2.16 ± 0.09 µM"
>>> assayvalue("Cc1c(CO)c(CO)c2c3cc4ccccc4cc3c(N3CCCCC3)nn12")
"10.01 ± 1.64 µM"

###

# Test system: human SCLC H526 xenografts
# procedureDetails: tumor growth in xenograft-bearing nude mice
# Format: in vivo
# appliedConditions: micelle formulation (Kolliphor/TWEEN 80/PEG400/ethanol/D5W); BO-2768 at 20 mg/kg twice daily; FIG. 12, panel A
quantity: tumor size

>>> assayvalue("N.N.[Cl][Pt][Cl] [Cisplatin, reference compound]")
"slowly increased in size"
>>> assayvalue("CCc1c2c(nc3ccc(OC(=O)N4CCC(N5CCCCC5)CC4)cc13)-c1cc3c(c(=O)n1C2)COC(=O)[C@]3(O)CC [Irinotecan, reference compound]")
"slowly increased in size"

The origin of these recorded values is patent US11066412B2.
